Molecular target: OXA-48 (Klebsiella pneumoniae, UniProt Q6XEC0)
Sequence (Q6XEC0 23-265, looked up): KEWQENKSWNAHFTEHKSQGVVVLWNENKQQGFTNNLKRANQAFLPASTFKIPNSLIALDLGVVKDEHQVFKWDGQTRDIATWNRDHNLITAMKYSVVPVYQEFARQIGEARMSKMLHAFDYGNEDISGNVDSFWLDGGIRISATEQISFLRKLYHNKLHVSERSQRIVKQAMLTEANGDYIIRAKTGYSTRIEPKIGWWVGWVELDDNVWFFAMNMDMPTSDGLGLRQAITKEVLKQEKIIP
Assay: Inhibition of purified class D carbapenemase OXA-48 (Ki, carbapenem substrates)
Assay type: biochemical
Conditions: cleavage of biapenem by OXA-48; read-out: Ki, Biapenem
pKi: −log10 of the molar value.
assay_endpoint: pKi

# annotated cases, reported pKi shown
1. COc1ccc2c(c1C(=O)O)OB(O)[C@@H](Sc1nncs1)C2 [Compound 62]    > 8.00
2. Nc1nnc(S[C@H]2Cc3ccc(F)c(C(=O)O)c3OB2O)s1 [Compound 23]    > 8.00
3. Nn1cnnc1S[C@H]1Cc2cccc(C(=O)O)c2OB1O [Compound 14]    7.00 to 8.00
4. CSc1ccc2c(c1C(=O)O)OB(O)[C@@H](Sc1nnc(N)s1)C2 [Compound 30]    > 8.00
5. Nc1nnc(S[C@H]2Cc3cccc(C(=O)O)c3OB2O)s1 [Compound 4]    > 8.00

Continue with the compound presented below.
Give recorded pKi with OXA-48 (Klebsiella pneumoniae, UniProt Q6XEC0) for the following compound: COc1ccc2c(c1C(=O)O)OB(O)[C@@H](Sc1nnc(N)s1)C2 [Compound 27]
> 8.00
